Hello, the source for this data is ChEMBL document CHEMBL2176942, in case you need it.

Readings of MRT for the listed molecules
RUN_DESCRIPTION: Mean residence time in dog at 10 mg/kg, po
Type: ADME, organism-based, Canis lupus familiaris
Parameters: dose 10 mg/kg, route oral
CONDITION_CONTEXT: in vivo
Give the quantity in h, number only.

STRUCTURE_STRING: Cn1c(-c2ccccn2)c(C2CCCC2)c2ccc(C(=O)NC3(C(=O)Nc4ccc(/C=C/C(=O)O)cc4)CCC3)cc21
VALUE_TYPE: MRT
TEST_VALUE: 5.4

The molecule identified as Cn1c(-c2cnccn2)c(C2CCCC2)c2ccc(C(=O)NC3(C(=O)Nc4ccc(/C=C/C(=O)O)cc4)CCC3)cc21 registered its MRT at 3.9

====

RUN_DESCRIPTION: Volume of distribution at steady state in rat at 2 mg/kg, iv
Type: ADME, organism-based
Design: dose 2 mg/kg, route intravenous
CONDITION_CONTEXT: in vivo, read-out: Vdss
In this section we review reported Vd values for a set of compounds.
# unit: L/kg | format: bare number

Illustrative cases are given below, each with its answer.
STRUCTURE_STRING: Cn1c(-c2ccccn2)c(C2CCCC2)c2ccc(C(=O)NC3(C(=O)Nc4ccc(/C=C/C(=O)O)cc4)CCC3)cc21
VALUE_TYPE: Vd
TEST_VALUE: 0.48
--
STRUCTURE_STRING: Cn1c(-c2cnccn2)c(C2CCCC2)c2ccc(C(=O)NC3(C(=O)Nc4ccc(/C=C/C(=O)O)cc4)CCC3)cc21
VALUE_TYPE: Vd
TEST_VALUE: 0.58

Next item in the queue.
# Vd (compound: Cn1c(-c2ccccn2)c(C2CCCC2)c2ccc(C(=O)NC(C)(C)C(=O)Nc3ccc(/C=C/C(=O)O)cc3)cc21 ) is 1.3

====

RUN_DESCRIPTION: Clearance in rat at 2 mg/kg, iv
Format: ADME, organism-based
Parameters: dose 2 mg/kg, route intravenous
CONDITION_CONTEXT: in vivo
Catalogue of compounds with associated clearance
Respond with the bare value in mL/min/kg.

STRUCTURE_STRING: Cn1c(-c2ccccn2)c(C2CCCC2)c2ccc(C(=O)NC(C)(C)C(=O)Nc3ccc(/C=C/C(=O)O)cc3)cc21
VALUE_TYPE: clearance
TEST_VALUE: 18.2

// recorded clearance for Cn1c(-c2cnccn2)c(C2CCCC2)c2ccc(C(=O)NC3(C(=O)Nc4ccc(/C=C/C(=O)O)cc4)CCC3)cc21 : 6.8

====

bioavailability values by entry
RUN_DESCRIPTION: Oral bioavailability in rat
Assay type: ADME, organism-based
CONDITION_CONTEXT: in vivo
Value expressed in %; do not type the unit.

The cases that follow already have their bioavailability on record.
COMPOUND: Cn1c(-c2ccccn2)c(C2CCCC2)c2ccc(C(=O)NC3(C(=O)Nc4ccc(/C=C/C(=O)O)cc4)CCC3)cc21 [BILB-1941]
UNIT_SYMBOL: %
bioavailability: 59
//
COMPOUND: Cn1c(-c2ccccn2)c(C2CCCC2)c2ccc(C(=O)NC(C)(C)C(=O)Nc3ccc(/C=C/C(=O)O)cc3)cc21
UNIT_SYMBOL: %
bioavailability: 46

response.value for Cn1c(-c2cnccn2)c(C2CCCC2)c2ccc(C(=O)NC3(C(=O)Nc4ccc(/C=C/C(=O)O)cc4)CCC3)cc21 (field: bioavailability) = 41
